Test: Cytotoxicity against human KB/VCR cells after 48 hrs by MTT assay
Format: functional, cell-based
ASSAY READOUT: pIC50
Remember, pIC50 is on a log scale: it is -log10 of the molar concentration.

# pIC50 of CC(=O)[C@H]1CC[C@]2(C)[C@@H]1CC[C@@H]1[C@@]3(C)CC[C@@H](O)C(C)(C)[C@@H]3CC[C@]12C = 5.96

# pIC50 of COc1cccc2c1C(=O)c1c(O)c3c(c(O)c1C2=O)C[C@@](O)(C(=O)CO)C[C@@H]3O[C@H]1C[C@H](N)[C@H](O)[C@H](C)O1 = 6.35

# pIC50 of C=C(C/C=C/C(C)(C)O)[C@H]1CC[C@]2(C)[C@@H]1CC[C@@H]1[C@@]3(C)CCC(=O)C(C)(C)[C@@H]3CC[C@]12C = 6.08

# pIC50 of CC(=O)O[C@@H]1CC[C@]2(C)[C@H]3CC[C@@H]4[C@@H]([C@@](C)(O)CCCC(C)(C)OO)CC[C@@]4(C)[C@]3(C)CC[C@H]2C1(C)C = 6.51

# pIC50 of CC1(C)C=CC[C@@](C)([C@H]2CC[C@]3(C)[C@@H]2CC[C@@H]2[C@@]4(C)CCC(=O)C(C)(C)[C@@H]4CC[C@]23C)O1 = 6.02
